Kindly supply the reported Tm values for the records listed here.
B1: Cytosolic beta-glucosidase, O61594 (parent)
chain: MKLLVVLSLVAVACNASIVRQQRRFPDDFLFGTATASYQIEGAWDEDGKGENIWDYMVHNTPEVIRDLSNGDIAADSYHNYKRDVEMMRELGLDAYRFSLSWARILPTGMANEVNPAGIAFYNNYIDEMLKYNITPLITLYHWDLPQKLQELGGFANPLISDWFEDYARVVFENFGDRVKMFITFNEPREICFEGYGSATKAPILNATAMGAYLCAKNLVTAHAKAYYLYDREFRPVQGGQCGITISVNWFGPATPTPEDEMAAELRRQGEWGIYAHPIFSAEGGFPKELSDKIAEKSAQQGYPWSRLPEFTEEEKAFVRGTSDLIGVNHYTAFLVSATERKGPYPVPSLLDDVDTGSWADDSWLKSASAWLTLAPNSIHTALTHLNNLYNKPVFYITENGWSTDESRENSLIDDDRIQYYRASMESLLNCLDDGINLKGYMAWSLMDNFEWMEGYIERFGLYEVDFSDPARTRTPRKAAFVYKHIIKHRVVDYEYEPETMVMTIDEGH

Variants of: B1
Conditions: Spodoptera frugiperda; pH 6; Thermal; CD; Potassium phosphate 10mM; transition: 2; structure 5CG0; whole UniProt chain shown

Record summary for E265A : reported Tm = 44.9 °C

The variant listed as L335A shows Tm equal to 38.5 °C

Tm for Y390A is 43 °C

For this variant ( Y420A ), measured Tm is 37 °C

Per the record, K366A has Tm of 41.5 °C

Looking up L100A , I found its Tm recorded as 46.4 °C

Entry V336F ; Tm = 30 °C

Lab note: measured Tm of A263F was 39.6 °C

For reference, reported Tm for L350A stands at 43.5 °C

Noted for N391A : its Tm reads 44.4 °C

Entry N249A ; Tm = 38.5 °C
